Data origin, for the record: patent US6262073A

biological target: 5-Lipoxygenase (crude enzyme preparation from rat basophilic leukemia cells, RBL-1) (Rattus norvegicus); construct: crude enzyme preparation from rat basophilic leukemia cells (RBL-1); endogenous in cells; host or cells: rat basophilic leukemia cells (RBL-1); test: 5-Lipoxygenase screen (5-LO), 5-HETE by RIA; type: biochemical; details: 30 μM; read-out: 5-LO percent inhibition

{"columns": ["molecule", "measurement-units", "inhibition at 30 µM"],
 "data": [
  ["CC(C)Cc1ccc(C2(C)OC(=O)C(O)=C2O)cc1 (stereo not drawn)", "%", 99],
  ["CCCCNS(=O)(=O)c1ccccc1C#CCCC1OC(=O)C(O)=C1O (stereo not drawn)", "%", 81],
  ["Cc1ccccc1C#CCCC1OC(=O)C(O)=C1O (stereo not drawn)", "%", 58],
  ["O=C1OC(CCOc2ccccc2Cc2ccccc2)C(O)=C1O (stereo not drawn)", "%", 101],
  ["O=C1OC(CCN2c3cccc4cccc(c34)S2(=O)=O)C(O)=C1O (stereo not drawn)", "%", 91],
  ["CCC/C=C\\Cc1ccccc1/C=C\\CCC1OC(=O)C(O)=C1O (stereo not drawn)", "%", 99],
  ["O=C1OC(CCSc2nc(-c3ccccc3)c(-c3ccccc3)o2)C(O)=C1O (stereo not drawn)", "%", 113],
  ["O=C1OC(CCOc2ccc3oc(-c4ccccc4)cc(=O)c3c2)C(O)=C1O (stereo not drawn)", "%", 100],
  ["CCCC1(c2ccc(CC(C)C)cc2)OC(=O)C(O)=C1O (stereo not drawn)", "%", 82]
]}

* * *

target: 5-Lipoxygenase (crude enzyme preparation from rat basophilic leukemia cells, RBL-1) (Rattus norvegicus, UniProt P12527); construct: crude enzyme preparation from rat basophilic leukemia cells (RBL-1); endogenous in cells; host or cells: rat basophilic leukemia cells (RBL-1); assay: 5-Lipoxygenase screen (5-LO), 5-HETE by RIA; type: biochemical; details: 30 μM; read-out: 5-LO percent inhibition
Sequence (P12527 whole entry): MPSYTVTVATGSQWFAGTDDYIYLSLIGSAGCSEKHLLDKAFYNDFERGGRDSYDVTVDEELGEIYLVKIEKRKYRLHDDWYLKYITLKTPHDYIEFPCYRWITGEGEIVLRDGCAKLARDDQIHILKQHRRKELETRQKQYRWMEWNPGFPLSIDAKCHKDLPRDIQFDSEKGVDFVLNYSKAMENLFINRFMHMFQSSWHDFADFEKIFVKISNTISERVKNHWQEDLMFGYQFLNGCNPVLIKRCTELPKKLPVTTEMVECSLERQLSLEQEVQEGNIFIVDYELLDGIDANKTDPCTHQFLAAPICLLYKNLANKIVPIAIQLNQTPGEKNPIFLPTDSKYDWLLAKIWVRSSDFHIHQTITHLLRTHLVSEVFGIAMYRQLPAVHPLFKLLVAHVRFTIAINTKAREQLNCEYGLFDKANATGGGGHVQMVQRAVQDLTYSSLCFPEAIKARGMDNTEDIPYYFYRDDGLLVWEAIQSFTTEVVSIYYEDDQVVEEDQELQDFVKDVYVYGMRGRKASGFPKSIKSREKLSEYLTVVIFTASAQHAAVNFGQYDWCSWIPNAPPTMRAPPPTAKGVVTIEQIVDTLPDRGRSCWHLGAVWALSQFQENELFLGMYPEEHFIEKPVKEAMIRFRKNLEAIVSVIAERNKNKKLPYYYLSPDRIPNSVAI
compounds and their reported inhibition at 30 µM

{"columns": ["compound", "inhibition at 30 µM, %"],
 "data": [
  ["CC(C)Cc1ccc([C@@]2(C)OC(=O)C(O)=C2O)cc1", 102],
  ["CCC/C=C\\Cc1ccccc1C#CCCC1OC(=O)C(O)=C1O (centres unmarked)", 81],
  ["O=C1OC(c2ccccc2)(c2ccccc2)C(O)=C1O", 94],
  ["CC(C)CC1(c2ccc(-c3ccccc3)cc2)OC(=O)C(O)=C1O (centres unmarked)", 96],
  ["CCCS(=O)(=O)Cc1ccccc1C#CCCC1OC(=O)C(O)=C1O (centres unmarked)", 30],
  ["O=C1OC(CCOc2ccc3ccccc3n2)C(O)=C1O (centres unmarked)", 93],
  ["CC(C)Cc1ccc(C2(c3ccccc3)OC(=O)C(O)=C2O)cc1 (centres unmarked)", 106],
  ["O=C1OC(CCOc2ccc(Oc3ccccc3)cc2)C(O)=C1O (centres unmarked)", 100],
  ["O=C1OC(CCC#Cc2ccccc2CSc2ccccc2)C(O)=C1O (centres unmarked)", 100],
  ["CCCC1(c2ccc(-c3ccccc3)cc2)OC(=O)C(O)=C1O (centres unmarked)", 99],
  ["O=C1OC(CCSc2ccc3ccccc3c2)C(O)=C1O (centres unmarked)", 101],
  ["CC1(c2ccc(-c3ccccc3)cc2)OC(=O)C(O)=C1O (racemic)", 107],
  ["C[C@]1(c2ccc(-c3ccccc3)cc2)OC(=O)C(O)=C1O", 101],
  ["O=C1OC(CCC#Cc2ccc3ccccc3c2)C(O)=C1O (centres unmarked)", 98]
]}
